The following are reported pIC50 results, target or system JAK3 (Homo sapiens (Human), UniProt P52333).
Lab note — pIC50 values are minus log10 of concentrations in M.

# query: pIC50 | item CN=S(=O)(C1CC1)N1CC(CC#N)(n2cc(-c3ncnc4[nH]ccc34)cn2)C1 (centres unmarked) [LW104-L] | system: JAK3 (Homo sapiens (Human), UniProt P52333)
6.80

# query: pIC50 | item N#CCC1(n2cc(-c3ncnc4[nH]ccc34)cn2)CN(S(=O)(=NC2CC2)C2CC2)C1 (centres unmarked) [LW104-N] | system: JAK3 (Homo sapiens (Human), UniProt P52333)
6.69

# query: pIC50 | item N#CCC1(n2cc(-c3ncnc4[nH]ccc34)cn2)CN(S(=N)(=O)C2CC2)C1 (centres unmarked) [LW104-E] | system: JAK3 (Homo sapiens (Human), UniProt P52333)
6.73

# query: pIC50 | item CC(C)S(=N)(=O)N1CC(CC#N)(n2cc(-c3ncnc4[nH]ccc34)cn2)C1 (centres unmarked) [LW104-D] | system: JAK3 (Homo sapiens (Human), UniProt P52333)
6.72

# query: pIC50 | item N#CCC1(n2cc(-c3ncnc4[nH]ccc34)cn2)CN(S(=N)(=O)c2ccccc2)C1 (centres unmarked) [LW104-C] | system: JAK3 (Homo sapiens (Human), UniProt P52333)
6.37
